Test system: A2780cisR
assay-protocol: The compound was evaluated for the cytotoxicity against human A2780cisR (ovarian) tumor cell lines.
Format: functional, cell-based
test-conditions: Homo sapiens, A2780cisR
Answer each item with its documented pIC50.
Give bare numbers, as −log10 of the molar value.

{"columns": ["compound-string", "study-system", "test-result"],
 "data": [
  ["COc1cc(C(=O)O[C@H](C(N)=O)[C@@]2(C)CO2)c2cccc(C)c2c1", "A2780cisR", 6.81]
]}

Hi, could you look up pIC50 for each item in my list?
1. CO[C@@]12[C@H](COC(N)=O)C3=C(C(=O)C(C)=C(N)C3=O)N1C[C@@H]1N[C@@H]12
2. CCOC(=O)CNC(=O)[C@@H](OC(=O)c1cc(OC)cc2c(C)cccc12)[C@]1(C)CO1
3. C[C@@]1([C@H](OC(=O)c2cccc3ccccc23)C(N)=O)CO1
4. COc1cc(C(=O)O[C@H](C(N)=O)[C@]2(C)CO2)c2cccc(C)c2c1
5. CCOc1cc(C(=O)O[C@H](C(N)=O)[C@]2(C)CO2)c2cccc(C)c2c1
6. C[C@@]1([C@H](OC(=O)c2ccc3ccccc3c2)C(N)=O)CO1
7. CCOC(=O)[C@@H](NC(=O)[C@@H](OC(=O)c1ccc(C)c2cc(OC)ccc12)[C@]1(C)CO1)C(C)C

1. 7.22
2. 6.08
3. 5.96
4. 7.12
5. 5.46
6. 5.87
7. 6.25
